Every entry's value here was drawn from patent US20220185832A1.

target: Recombinant Human 5′-Nucleotidase (CD73) (Homo sapiens); construct: CHO derived CD73 (Trp27-Lys547), with a C-terminal 6-His tag; 6-His (C); experiment: CD73 Enzyme Assay; details: 0.5 nM human CD73, 30 μM AMP, PiColorLock phosphate detection, OD 635 nm; read-out: Potency (IC50)
Sequence (P21589 27-547): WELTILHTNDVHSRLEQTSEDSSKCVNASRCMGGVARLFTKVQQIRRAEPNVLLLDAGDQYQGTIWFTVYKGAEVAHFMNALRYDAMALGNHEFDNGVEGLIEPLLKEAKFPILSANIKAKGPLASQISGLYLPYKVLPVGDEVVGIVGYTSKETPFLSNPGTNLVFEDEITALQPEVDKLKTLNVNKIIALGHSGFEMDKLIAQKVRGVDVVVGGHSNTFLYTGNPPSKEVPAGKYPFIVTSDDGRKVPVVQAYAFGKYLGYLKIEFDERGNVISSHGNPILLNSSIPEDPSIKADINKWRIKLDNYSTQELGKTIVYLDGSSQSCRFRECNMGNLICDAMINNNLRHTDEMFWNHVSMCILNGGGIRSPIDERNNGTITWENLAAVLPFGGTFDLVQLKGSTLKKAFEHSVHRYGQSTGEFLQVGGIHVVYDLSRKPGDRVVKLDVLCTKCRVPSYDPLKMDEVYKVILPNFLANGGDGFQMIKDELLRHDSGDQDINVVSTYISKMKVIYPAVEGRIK
Assign IC50 to each entry below.

Given item O=P(O)(O)CP(=O)(O)OC[C@H]1O[C@@H](c2ccc3c(NC4CCC4)nc(Cl)nc3c2)[C@H](O)[C@@H]1O [Compound 7] , the value recorded as its IC50 is 10 to 99 nM

Given item O=P(O)(O)CP(=O)(O)OC[C@H]1O[C@@H](c2ccc3c(NC4CCCC4)ncnc3c2)[C@H](O)[C@@H]1O [Compound 46] , the value recorded as its IC50 is < 10 nM

Given item C[C@@]1(O)[C@H](O)[C@@H](COP(=O)(O)CP(=O)(O)O)O[C@H]1c1ccc2c(NCc3ccccc3)nc(Cl)nc2c1 [Compound 34] , the value recorded as its IC50 is > 1000 nM

Given item C=Cc1nc(NCc2ccccc2)c2ccc([C@@H]3O[C@H](COP(=O)(O)CP(=O)(O)O)[C@@H](O)[C@H]3O)cc2n1 [Compound 18] , the value recorded as its IC50 is 10 to 99 nM

Given item N#C[C@@]1(c2ccc3c(NCc4ccccc4)nc(Cl)nc3c2)O[C@H](COP(=O)(O)CP(=O)(O)O)[C@@H](O)[C@H]1O [Compound 16] , the value recorded as its IC50 is > 1000 nM

Given item O=P(O)(O)CP(=O)(O)OC[C@H]1O[C@@H](c2ccc3c(NCc4ccccc4)nc(Cl)nc3c2)[C@@H](F)[C@@H]1O [Compound 13] , the value recorded as its IC50 is 100 to 999 nM
